Listed here: items and their measured MEASURED FLUORESCENCE, RFU +30 min.
# Test Details: Measurement of enzyme substrate degradation (100° C. for 15 minutes) by fluorescence
# Assay type: physicochemical
# Run Parameters: pH 7 LB broth, no spores, read at 60° C., +30 min
Respond with the bare value in RFU.

- Input Smiles: "Cc1cc(=O)oc2c(F)c(O[C@H]3O[C@H](CO)[C@@H](O)[C@H](O)[C@H]3O)c(F)cc12"
  MEASURED FLUORESCENCE, RFU +30 min [RFU]: 13283
- Input Smiles: "Cc1cc(=O)oc2cc(O[C@H]3O[C@H](CO)[C@@H](O)[C@H](O)[C@H]3O)cc(F)c12"
  MEASURED FLUORESCENCE, RFU +30 min [RFU]: 673
- Input Smiles: "Cc1cc(=O)oc2cc(O[C@H]3O[C@H](CO)[C@@H](O)[C@H](O)[C@H]3O)ccc12"
  MEASURED FLUORESCENCE, RFU +30 min [RFU]: 670

Shifting focus to the compound that follows.
// query MEASURED FLUORESCENCE, RFU +30 min value for entry Cc1cc(=O)oc2cc(O[C@H]3O[C@H](CO)[C@@H](O)[C@H](O)[C@H]3O)c(F)cc12 1037

---

# Test Details: Fluorescence of control wells containing enzyme substrate in LB broth without spores
# Type: physicochemical
# Run Parameters: pH 9 LB broth, substrate 0.3 mg/mL, 60° C., +30 minutes
Listed here: items and their measured mean fluorescence values detected for the control wells.
Respond with the bare value in RFU.

- Input Smiles: "Cc1cc(=O)oc2cc(O[C@H]3O[C@H](CO)[C@@H](O)[C@H](O)[C@H]3O)ccc12"
  Units Text: "RFU"
  Reported Value: 338

// query mean fluorescence values detected for the control wells value for entry Cc1cc(=O)oc2cc(O[C@H]3O[C@H](CO)[C@@H](O)[C@H](O)[C@H]3O)cc(F)c12 365

// query mean fluorescence values detected for the control wells value for entry Cc1cc(=O)oc2cc(O[C@H]3O[C@H](CO)[C@@H](O)[C@H](O)[C@H]3O)c(F)cc12 633

---

# Test Details: Measurement of enzyme substrate degradation (100° C. for 15 minutes) by fluorescence
# Assay type: physicochemical
# Run Parameters: pH 7 LB broth, no spores, read at 60° C., +10 min
Measure Name: MEASURED FLUORESCENCE, RFU +10 min (RFU)
Respond with the bare value in RFU.

// query MEASURED FLUORESCENCE, RFU +10 min value for entry Cc1cc(=O)oc2cc(O[C@H]3O[C@H](CO)[C@@H](O)[C@H](O)[C@H]3O)cc(F)c12 733

---

# Test Details: Measurement of enzyme substrate degradation (100° C. for 15 minutes) by fluorescence
# Format: physicochemical
# Run Parameters: pH 9 LB broth, no spores, read at 60° C., +5 min
Listed here: items and their measured MEASURED FLUORESCENCE, RFU +5 min.
Respond with the bare value in RFU.

Example results:
- Compound: "Cc1cc(=O)oc2cc(O[C@H]3O[C@H](CO)[C@@H](O)[C@H](O)[C@H]3O)ccc12 [MUG]"
  MEASURED FLUORESCENCE, RFU +5 min (RFU): 622
- Compound: "Cc1cc(=O)oc2cc(O[C@H]3O[C@H](CO)[C@@H](O)[C@H](O)[C@H]3O)c(F)cc12 [Example 1]"
  MEASURED FLUORESCENCE, RFU +5 min (RFU): 1437

// query MEASURED FLUORESCENCE, RFU +5 min value for entry Cc1cc(=O)oc2cc(O[C@H]3O[C@H](CO)[C@@H](O)[C@H](O)[C@H]3O)cc(F)c12 [Example 2] 625

// query MEASURED FLUORESCENCE, RFU +5 min value for entry Cc1cc(=O)oc2c(F)c(O[C@H]3O[C@H](CO)[C@@H](O)[C@H](O)[C@H]3O)c(F)cc12 [Comparative Example A] 19052
